TARGET OF ASSAY: Bcl-2-like protein 1 (Homo sapiens, UniProt Q07817)
Sequence (Q07817 whole entry): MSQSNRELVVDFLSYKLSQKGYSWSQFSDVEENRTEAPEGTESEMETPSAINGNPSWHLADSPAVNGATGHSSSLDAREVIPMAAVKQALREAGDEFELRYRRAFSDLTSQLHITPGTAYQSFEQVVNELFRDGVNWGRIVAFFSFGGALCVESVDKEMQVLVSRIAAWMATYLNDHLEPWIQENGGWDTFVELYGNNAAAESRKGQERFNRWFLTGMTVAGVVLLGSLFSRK
TEST NAME: Binding affinity to Bcl-XL by fluorescence polarization assay
pKi: −log10 of the molar value.
Recorded measurements of pKi, one per entry
READOUT LABEL: pKi

smi=CN(C)C(=O)N1CCN(c2ccc(C(=O)NS(=O)(=O)c3ccc(NCCSc4ccccc4)c([N+](=O)[O-])c3)cc2)CC1 readout_label=pKi measurement=6.53
smi=COc1cc(CCN(C)C)ccc1-c1ccc(C(=O)NS(=O)(=O)c2ccc(NCCSc3ccccc3)c([N+](=O)[O-])c2)cc1 readout_label=pKi measurement=6.18
smi=CN(C)C(=O)C[C@H](CSc1ccccc1)Nc1ccc(S(=O)(=O)NC(=O)c2ccc(N3CCC(C)(C)CC3)cc2)cc1[N+](=O)[O-] readout_label=pKi measurement=8.51
smi=COc1cc(CN(C)C)ccc1-c1ccc(C(=O)NS(=O)(=O)c2ccc(NCCSc3ccccc3)c([N+](=O)[O-])c2)cc1 readout_label=pKi measurement=6.37
smi=COc1cc(C(=O)N(C)C)ccc1-c1ccc(C(=O)NS(=O)(=O)c2ccc(NCCSc3ccccc3)c([N+](=O)[O-])c2)cc1 readout_label=pKi measurement=6.33
smi=CC1(C)CCN(c2ccc(C(=O)NS(=O)(=O)c3ccc(N[C@H](CCN4CCOCC4)CSc4ccccc4)c([N+](=O)[O-])c3)cc2)CC1 readout_label=pKi measurement=8.96
smi=CN(C)CCCC[C@H](CSc1ccccc1)Nc1ccc(S(=O)(=O)NC(=O)c2ccc(N3CCC(C)(C)CC3)cc2)cc1[N+](=O)[O-] readout_label=pKi measurement=8.92

====

TARGET OF ASSAY: UniProtKB Q07817
TEST NAME: Binding affinity to Bcl-XL by fluorescence polarization assay
READOUT LABEL: Ki

smi=COc1cc(CCC(=O)N(C)C)ccc1-c1ccc(C(=O)NS(=O)(=O)c2ccc(NCCSc3ccccc3)c([N+](=O)[O-])c2)cc1 target_of_assay="UniProtKB Q07817" readout_label=Ki measurement="38.9 nM"
smi=CC1(C)CCN(c2ccc(C(=O)NS(=O)(=O)c3ccc(NCCSc4ccccc4)c([N+](=O)[O-])c3)cc2)CC1 target_of_assay="UniProtKB Q07817" readout_label=Ki measurement="19 nM"
smi=COc1cc(CCCN2CCOCC2)ccc1-c1ccc(C(=O)NS(=O)(=O)c2ccc(N[C@@H](CCN(C)C)CSc3ccccc3)c([N+](=O)[O-])c2)cc1 target_of_assay="UniProtKB Q07817" readout_label=Ki measurement="250 nM"
smi=CC1(C)CCN(c2ccc(C(=O)NS(=O)(=O)c3ccc(N[C@H](CCCCN)CSc4ccccc4)c([N+](=O)[O-])c3)cc2)CC1 target_of_assay="UniProtKB Q07817" readout_label=Ki measurement="1 nM"

====

TARGET OF ASSAY: UniProtKB Q07817
TEST NAME: Binding affinity to Bcl-XL in 10% human serum by fluorescence polarization assay
pKi: −log10 of the molar value.
READOUT LABEL: pKi

smi=COc1cc(CCCN(C)C)ccc1-c1ccc(C(=O)NS(=O)(=O)c2ccc(NCCSc3ccccc3)c([N+](=O)[O-])c2)cc1 target_of_assay="UniProtKB Q07817" readout_label=pKi measurement=5.25
smi=COc1cc(CCCN2CCOCC2)ccc1-c1ccc(C(=O)NS(=O)(=O)c2ccc(NCCSc3ccccc3)c([N+](=O)[O-])c2)cc1 target_of_assay="UniProtKB Q07817" readout_label=pKi measurement=5.37
